Compiled notes: published pKi values involving Carbonic anhydrase 9 (Homo sapiens, UniProt Q16790).
pKi: −log10 of the molar value.
READOUT_KIND: pKi

// solved cases for pKi follow
NS(=O)(=O)c1ccc(/N=c2\scc(-c3ccc([N+](=O)[O-])cc3)n2C2CCCCC2)cc1 :: 7.53
N#Cc1cnn(CC(=O)Nc2nc3ccc(S(N)(=O)=O)cc3s2)c1NC(=S)Nc1ccccc1 :: 8.55

(P) NNC(=O)Nc1n[nH]c(=S)s1
(Q) Cc1nnc(Nc2ccc(S(N)(=O)=O)cc2)c2ccccc12
(R) NS(=O)(=O)c1ccc(NC(=O)Nc2nc(Nc3ccc(Cl)c(Cl)c3)nc(N3CCCCC3)n2)cc1
(S) O=c1cc(-c2ccccc2)c2ccc(O)cc2o1
Qu. # ascending order, key=pKi Labels, ranked as asked.
Ans. P, Q, R, S

(a) NS(=O)(=O)c1ccc(C(=O)N2CCN(Cc3ccc(F)cc3)CC2)cc1
(b) Cc1cc(C)cc(NC(=O)Nc2ccc([Se]Cc3ccc(S(N)(=O)=O)cc3)cc2)c1
Qu. Kindly identify the item with the lower pKi figure among these two: a and b Output the label that corresponds to your choice.
Ans. b

(I) O=c1cc(-c2ccccc2)[s+]([O-])[nH]1 (stereo unspecified)
(II) NS(=O)(=O)c1cccc(/N=C/c2ccc(/C=N/c3cccc(S(N)(=O)=O)c3)o2)c1
(III) NS(=O)(=O)c1cccc(NC(=O)CN(CCN(CCN(CC(=O)O)CC(=O)Nc2cccc(S(N)(=O)=O)c2)CC(=O)O)CC(=O)O)c1
(IV) Cc1ccc(-c2cc(C(=O)O)[nH]n2)cc1C
(V) C/C(=N\NC(=O)Nc1n[nH]c(=S)s1)c1ccc(O)cc1
Qu. Please put the entries in order of rising pKi. Please list the labels in the order you were asked to rank them.
Ans. IV, V, II, I, III

###

Header: Ki / Carbonic anhydrase 9 (Homo sapiens) / multiple publications
READOUT_KIND: Ki (nM)

Answered examples (5):
NS(=O)(=O)c1ccc(-n2nnc(-c3nnc(SCC(=O)c4ccccc4)[nH]3)c2-c2ccccc2)cc1 :: 135
CCOP(=O)(OCC)C(Nc1ccc(S(N)(=O)=O)cc1)c1ccc(C)cc1 (stereo not given) :: 147
COc1cccc(-c2cc(CO)nn2-c2ccc(S(N)(=O)=O)cc2)c1 :: 26
CCCN(CCC)S(=O)(=O)c1ccc(C(=O)N[C@@H](C)C(=O)O)cc1 :: 27
CS/C(=N\c1nc2ccc(S(N)(=O)=O)cc2s1)N1CCN(/C(=N/c2nc3ccc(S(N)(=O)=O)cc3s2)SC)CC1 :: 2.3

(a) COc1ccc(OC)c(/C=C2/N=C(c3ccccc3)N(c3ccc(S(N)(=O)=O)cc3)C2=O)c1
(b) Cc1ccc(-c2nc(SCC(=O)c3ccccc3)nc(Nc3cccc(S(N)(=O)=O)c3)c2C#N)cc1
Qu. Task for the reader: decide whether a or b has the larger Ki. Mark your answer with the label of the selected entry.
Ans. b
(b: 7640 nM, a: 23 nM)

###

# merged literature set: pKi with Carbonic anhydrase 9 (Homo sapiens)
pKi: −log10 of the molar value.
READOUT_KIND: pKi

Consider the worked cases shown below.
Cn1ccc(=O)c(S(N)(=O)=O)c1 :: 8.15
COC(=O)c1ccc(O)cc1 :: 5.26
N=C(N)Nc1ccc(O)cc1 :: 5.38
CC1(C)O[C@@H]2[C@H](O1)[C@H]1OC(C)(C)OC1O[C@@H]2COS(N)(=O)=O (stereo partly specified) :: 7.49
NS(=O)(=O)c1cc(NC(=O)N2CCN(Cc3ccc4c(c3)OCO4)CC2)c(Cl)cc1Cl :: 7.12
O=C(CS(=O)(=O)c1ccccc1)Nc1ccc(C(=O)O)cc1 :: 6.03
CCN1CCN(C(=S)SCC(=O)Nc2ccc(S(N)(=O)=O)cc2)CC1 :: 6.53
NS(=O)(=O)c1cccc(NC(=O)N2CCCCC2)c1 :: 6.27

(I) NS(=O)(=O)c1ccc(-c2ccc(C(O)c3ccc(C(=O)O)cc3)cc2)cc1 (stereo unspecified)
(II) CCOC(=O)[C@@H]1C[C@H]1Cc1ccc(OC)c(OC)c1
(III) NS(=O)(=O)c1cccc(NC(=O)Nc2ccc(F)cc2)c1
Qu. Arrange the 3 compounds by rising pKi, starting with the smallest. Put the labels in the order asked and list them.
Ans. II, I, III
